Below is a list of entries, each paired with its recorded solubility kinetic value.
# assay-method-text: Kinetic solubility of the compound in water up to 250 uM by laser nephelometry
# Type: physicochemical
# measurement-parameters: read-out: Kinetic_solubility

Recorded results for 4 molecules are shown here.
{"molecule": "COc1cc(Nc2nc(C)cc(N3CCCCC3)n2)ccc1F", "solubility kinetic": "160 µM"}
{"molecule": "COc1cc(Nc2nc(C)cc(N(C)C)n2)ccc1F", "solubility kinetic": "> 250 µM"}
{"molecule": "Cc1cc(N(C)C)nc(N[C@H]2CC[C@H](NC(=O)c3ccccc3)CC2)n1", "solubility kinetic": "> 250 µM"}
{"molecule": "COc1cc(Nc2nccc(N(C)C)n2)ccc1F", "solubility kinetic": "160 µM"}

(Q) Look up solubility kinetic for this molecule: Cc1cc(N(C)C)nc(N[C@H](C)c2ccccc2)n1
(A) > 250 µM

(Q) What value of solubility kinetic has been recorded for this entry: COc1cc(Nc2nc(C(=O)N3CCCC3)cc(N(C)C)n2)ccc1F
(A) > 250 µM

(Q) I would be grateful if you could share the reported solubility kinetic for COc1cc(OC)cc(C(=O)Nc2ccc(Nc3nc(C)cc(N(C)C)n3)cc2)c1 .
(A) 20 µM

(Q) Give its solubility kinetic value. Item: COc1cc(Nc2nc(CO)cc(N(C)C)n2)ccc1F
(A) > 250 µM

(Q) Return reported solubility kinetic; argument: Cc1cc(N(C)C)nc(NCc2ccc(Cl)cc2)n1
(A) > 250 µM

(Q) Give the measured solubility kinetic of Cc1cc(Nc2ccc(F)cc2)nc(NCc2ccccc2)n1 .
(A) > 250 µM

(Q) What value of solubility kinetic has been reported for the following molecule? COc1ccc(Nc2nc(C)cc(N(C)C)n2)cc1
(A) > 250 µM

====

Parameter: log10 CLH. Scope: all listed entries.
# assay-method-text: Intrinsic clearance in CD-1 mouse liver microsomes at 0.5 uM after 30 mins in presence of NADPH by UPLC-MS/MS analysis
# Format: ADME, microsome
# measurement-parameters: 0.5 h
Base-10 log of CLH, unit mL/min/g.

Example entries begin here.
{"compound": "Cc1cc(Nc2ccc(F)cc2)nc(NCc2ccccc2)n1", "log10 CLH": 1.00}
{"compound": "COc1ccc(Nc2nc(C)cc(N(C)C)n2)cc1", "log10 CLH": 1.00}
{"compound": "COc1cc(Nc2nc(C)cc(N3CCOCC3)n2)ccc1F", "log10 CLH": 1.26}

(Q) Any idea what log10 CLH was measured for COc1cc(OC)cc(C(=O)Nc2ccc(Nc3nc(C)cc(N(C)C)n3)cc2)c1 ?
(A) -0.15

(Q) Any idea what log10 CLH was measured for Cc1cc(N(C)C)nc(N[C@H](C)c2ccccc2)n1 ?
(A) 1.04

(Q) Find the recorded log10 CLH belonging to Cc1cc(N(C)C)nc(NCC2CCOCC2)n1 and report it.
(A) 0.58

(Q) Reported log10 CLH for COc1cc(Nc2nc(C)cc(N3CCCCC3)n2)ccc1F : what is it?
(A) 1.23

(Q) I have this compound here, COc1cc(Nc2nc(C)cc(N3CCCC3)n2)ccc1F , and I need its recorded log10 CLH.
(A) 1.15

(Q) Which log10 CLH value is on record for CCOC1CCCN(c2cc(C)nc(Nc3ccc(F)c(OC)c3)n2)C1 (configuration not stated) ?
(A) 1.54

(Q) If you can, please state the reported log10 CLH value of COc1cc(Nc2nc(C)cc(N3CCC(F)(F)C3)n2)ccc1F .
(A) 1.54

(Q) Which log10 CLH value belongs to COc1cc(Nc2nc(C)cc(NCc3ccccc3)n2)ccc1F ?
(A) 0.90

(Q) I have this compound here, COc1cc(Nc2nc(C(C)C)cc(N(C)C)n2)ccc1F , and I need its recorded log10 CLH.
(A) 1.70

====

# measured-target: Sterol 14-alpha demethylase (Trypanosoma cruzi (strain CL Brener))
# Sequence (Q7Z1V1 whole entry): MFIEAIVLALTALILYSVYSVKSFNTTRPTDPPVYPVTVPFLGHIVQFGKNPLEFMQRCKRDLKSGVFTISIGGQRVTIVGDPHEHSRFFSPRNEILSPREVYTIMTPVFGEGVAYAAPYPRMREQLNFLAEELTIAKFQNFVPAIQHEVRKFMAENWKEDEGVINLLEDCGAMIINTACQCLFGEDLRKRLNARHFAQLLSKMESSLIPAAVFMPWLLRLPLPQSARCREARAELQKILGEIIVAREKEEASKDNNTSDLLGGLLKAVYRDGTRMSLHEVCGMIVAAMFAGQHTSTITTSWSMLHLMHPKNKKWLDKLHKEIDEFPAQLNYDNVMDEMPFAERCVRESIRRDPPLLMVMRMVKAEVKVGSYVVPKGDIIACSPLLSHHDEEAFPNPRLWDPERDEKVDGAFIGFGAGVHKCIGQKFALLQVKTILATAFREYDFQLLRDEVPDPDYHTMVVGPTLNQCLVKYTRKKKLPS
# assay-method-text: Inhibition of Trypanosoma cruzi CYP51
pIC50: −log10 of the molar value.
endpoint-name: pIC50

(Q) Given COc1cc(OC)cc(C(=O)Nc2ccc(Nc3nc(C)cc(N(C)C)n3)cc2)c1 , state its recorded pIC50.
(A) < 5.00

====

Recorded selectivity ratio for the following molecules
# assay-method-text: Selectivity ratio of pEC50 for African green monkey Vero cells to pEC50 for Trypanosoma cruzi amastigote forms infected in African green monkey Vero cells
# Format: toxicity
The answer should be written as a number, with no unit following it.

The following molecules have reported results that may help.
{"molecule": "CCOC1CCCN(c2cc(C)nc(Nc3ccc(F)c(OC)c3)n2)C1 (configuration not stated)", "observed-measurement": 16}
{"molecule": "COc1cc(Nc2nc(C)cc(N3CCCC3)n2)ccc1F", "observed-measurement": 63}

(Q) Entry under review: Cc1cc(Nc2ccc(F)cc2)nc(NCc2ccccc2)n1 . Reported selectivity ratio?
(A) 20

====

# assay-method-text: Selectivity ratio of pEC50 for African green monkey Vero cells to pEC50 for Trypanosoma cruzi amastigote forms infected in African green monkey Vero cells
# Format: toxicity
selectivity ratio under 40 gets y, anything at or over 40 gets n.

Solved entries (count: 4):
{"mol-smiles": "COc1cc(Nc2cc(C)nc(NCc3ccccc3)n2)ccc1F", "label-class": "n"}
{"mol-smiles": "COc1cc(OC)cc(C(=O)N[C@H]2CC[C@H](Nc3nc(C)cc(N(C)C)n3)CC2)c1", "label-class": "n"}
{"mol-smiles": "Cc1cc(N(C)C)nc(NCc2ccc(Cl)cc2)n1", "label-class": "y"}
{"mol-smiles": "COc1cc(Nc2nc(C)cc(NCc3ccccc3)n2)ccc1F", "label-class": "y"}

Proceed to the following item.
(Q) Is it true that selectivity ratio reported for COc1cccc(Nc2nc(C)cc(N(C)C)n2)c1 is less than 40?
(A) n

====

# Tested on: Vero
# assay-method-text: Cytotoxicity against African green monkey Vero cells
# Type: cell-based
# measurement-parameters: Chlorocebus sabaeus
pEC50: −log10 of the molar value.
endpoint-name: pEC50

(Q) State its pEC50 on Vero: Cc1cc(N(C)C)nc(Nc2ccc(C(=O)N3CCCCC3)cc2)n1
(A) < 4.30

(Q) Field: pEC50 (Vero). Entry: Cc1cc(N(C)C)nc(Nc2ccc3c(c2)OCO3)n1
(A) < 4.30

(Q) So what pEC50 did COc1cc(Nc2nc(N(C)C)cc(C(F)(F)F)n2)ccc1F get with Vero?
(A) < 4.30

(Q) Notebook entry, Vero assay: pEC50 of Cc1cc(N(C)C)nc(N[C@H]2CC[C@H](NC(=O)c3ccccc3)CC2)n1 = ?
(A) < 4.30

====

# assay-method-text: Intrinsic clearance in CD-1 mouse liver microsomes at 0.5 uM after 30 mins in presence of NADPH by UPLC-MS/MS analysis
# Assay type: ADME, microsome
# measurement-parameters: 0.5 h
endpoint-name: CLH (mL/min/g)
Field format: number, assumed mL/min/g, no unit text.

The examples below pair each entry with its known result.
{"mol-smiles": "COc1cccc(Nc2cc(C)nc(NCc3ccccc3)n2)c1", "CLH, mL/min/g": 20}
{"mol-smiles": "Cc1cc(N(C)C)nc(Nc2ccc3c(c2)OCO3)n1", "CLH, mL/min/g": 14}
{"mol-smiles": "COc1cc(Nc2cc(C)nc(NCc3ccccc3)n2)ccc1F", "CLH, mL/min/g": 10}
{"mol-smiles": "COc1cccc(Nc2nc(C)cc(N(C)C)n2)c1", "CLH, mL/min/g": 15}
{"mol-smiles": "Cc1cc(N(C)C)nc(NCc2ccccc2)n1", "CLH, mL/min/g": 28}

Field: next compound
(Q) Query: CLH; subject: COc1cc(OC)cc(C(=O)N[C@H]2CC[C@H](Nc3nc(C)cc(N(C)C)n3)CC2)c1
(A) 4.2

====

EC50 by entry:
# Tested on: Vero
# assay-method-text: Cytotoxicity against African green monkey Vero cells
# Type: cell-based
# measurement-parameters: Chlorocebus sabaeus
Numbers only here, please. The scale is µM.

As a guide, the following entries are already answered.
{"molecule": "COc1ccccc1NC(=O)c1ccc(Nc2nc(C)cc(N(C)C)n2)cc1", "EC50, µM": 0.631}
{"molecule": "COc1cc(Nc2nc(C)cc(N3CCCCC3)n2)ccc1F", "EC50, µM": 15.8}
{"molecule": "COc1cc(Nc2cc(C)nc(NCc3ccccc3)n2)ccc1F", "EC50, µM": 5.01}
{"molecule": "Cc1cc(N(C)C)nc(NCc2ccc(Cl)cc2)n1", "EC50, µM": 25.1}

(Q) Dear colleague, I am looking for the recorded EC50 of the following molecule: CCOC1CCCN(c2cc(C)nc(Nc3ccc(F)c(OC)c3)n2)C1 (configuration not stated)
(A) 25.1

====

# assay-method-text: Selectivity ratio of pEC50 for African green monkey Vero cells to pEC50 for Trypanosoma cruzi amastigote forms infected in African green monkey Vero cells
# Type: toxicity
endpoint-name: selectivity ratio
When you answer, write just the number.

Recorded selectivity ratio, per entry:
{"compound": "COc1cc(Nc2nc(C)cc(N3CCCC(C#N)C3)n2)ccc1F (configuration not stated)", "selectivity ratio": 5}
{"compound": "COc1cc(Nc2nc(C)cc(N3CCC(F)(F)C3)n2)ccc1F", "selectivity ratio": 4}
{"compound": "COc1cc(Nc2nc(C)cc(N(C)C)n2)ccc1F", "selectivity ratio": 80}
{"compound": "COc1ccccc1NC(=O)c1ccc(Nc2nc(C)cc(N(C)C)n2)cc1", "selectivity ratio": 1.3}
{"compound": "COc1cccc(Nc2cc(C)nc(NCc3ccccc3)n2)c1", "selectivity ratio": 40}
{"compound": "Cc1cc(N(C)C)nc(Nc2ccc(C(=O)NCc3ccccc3)cc2)n1", "selectivity ratio": 4}

(Q) Reported selectivity ratio for COc1cc(Nc2nc(C)cc(N3CCCCC3)n2)ccc1F : what is it?
(A) 16

Recorded values, source ChEMBL document CHEMBL4229528.
